# SYSTEM UNDER TEST: panel of more than 300 wild-type and mutant kinases (313 kinase panel) (Homo sapiens, UniProt Q9Y6M4)
# Sequence (Q9Y6M4 whole entry, change not shown): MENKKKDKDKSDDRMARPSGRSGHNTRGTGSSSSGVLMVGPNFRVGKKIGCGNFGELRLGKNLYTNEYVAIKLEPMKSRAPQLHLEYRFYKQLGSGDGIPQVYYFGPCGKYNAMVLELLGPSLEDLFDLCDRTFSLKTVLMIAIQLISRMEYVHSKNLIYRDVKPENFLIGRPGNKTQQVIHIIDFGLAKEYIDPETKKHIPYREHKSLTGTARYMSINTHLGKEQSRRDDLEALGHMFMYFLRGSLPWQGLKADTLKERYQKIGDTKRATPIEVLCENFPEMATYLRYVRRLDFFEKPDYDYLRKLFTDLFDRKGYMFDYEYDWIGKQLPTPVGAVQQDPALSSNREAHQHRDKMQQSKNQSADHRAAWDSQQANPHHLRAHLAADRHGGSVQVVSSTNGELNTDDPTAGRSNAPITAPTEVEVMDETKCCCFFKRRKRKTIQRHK
# METHOD DESCRIPTION: Kinase profiling in a biochemical assay panel (mobility shift assays and ELISA), %-inhibition at 1 μM; selectivity entropy
# RECORDED CONDITIONS: kinase CK1γ3; 1 μM compound
MEASURED PARAMETER: %-inhibition, CK1γ3 (%)
Entry rule: numbers only, all in %.

| COMPOUND | %-inhibition, CK1γ3 / % |
| --- | --- |
| COc1cc2c(Nc3ccc(Br)cc3F)ncnc2cc1OCC1CCN(C)CC1 | 2.66 |
| COc1cc(Nc2c(C#N)cnc3cc(OCCCN4CCN(C)CC4)c(OC)cc23)c(Cl)cc1Cl | 3.3 |
| CO[C@H]1C[C@@H]2CC[C@@H](C)[C@@](O)(O2)C(=O)C(=O)N2CCCC[C@H]2C(=O)O[C@H]([C@H](C)C[C@@H]2CC[C@@H](OCCO)[C@H](OC)C2)CC(=O)[C@H](C)/C=C(\C)[C@@H](O)[C@@H](OC)C(=O)[C@H](C)C[C@H](C)/C=C/C=C/C=C/1C | -13 |
| N#CC[C@H](C1CCCC1)n1cc(-c2ncnc3[nH]ccc23)cn1 | 4.6 |
| COc1cc2nccc(Oc3ccc(NC(=O)C4(C(=O)Nc5ccc(F)cc5)CC4)cc3)c2cc1OC [cabozantinib] | 5 |
| CO[C@H]1C[C@@H]2CC[C@@H](C)[C@@](O)(O2)C(=O)C(=O)N2CCCC[C@H]2C(=O)O[C@H]([C@H](C)C[C@@H]2CC[C@@H](OC(=O)C(C)(CO)CO)[C@H](OC)C2)CC(=O)[C@H](C)/C=C(\C)[C@@H](O)[C@@H](OC)C(=O)[C@H](C)C[C@H](C)/C=C/C=C/C=C/1C | -1 |
| CCCS(=O)(=O)Nc1ccc(F)c(C(=O)c2c[nH]c3ncc(-c4ccc(Cl)cc4)cc23)c1F | 2.14 |
| Cc1ccc(C(=O)Nc2ccc(CN3CCN(C)CC3)c(C(F)(F)F)c2)cc1C#Cc1cnc2cccnn12 | 4.6 |

query: Dear colleague, I am looking for the recorded %-inhibition, CK1γ3 of the following compound: O=S(=O)(c1cccc2cnccc12)N1CCCNCC1
result: -4

query: Dear colleague, I am looking for the recorded %-inhibition, CK1γ3 of the following compound: CNC(=O)c1cc(Oc2ccc(NC(=O)Nc3ccc(Cl)c(C(F)(F)F)c3)c(F)c2)ccn1
result: -2.14

query: Dear colleague, I am looking for the recorded %-inhibition, CK1γ3 of the following compound: C[C@@H](Oc1cc(-c2cnn(C3CCNCC3)c2)cnc1N)c1c(Cl)ccc(F)c1Cl
result: 4

query: Dear colleague, I am looking for the recorded %-inhibition, CK1γ3 of the following compound: Cc1ccc(Nc2nccc(N(C)c3ccc4c(C)n(C)nc4c3)n2)cc1S(N)(=O)=O
result: -2

Data provenance is paper PMC3961306.
